B1: PTPLAD1 (parent)
chain: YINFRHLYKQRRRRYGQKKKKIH

variants of: B1; assay: protein stability index of a GFP-peptide fusion (GPS, HEK-293T) (PSI 1-6); higher = more stable; conditions: c terminus: native;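 further: lentivirally expressed fusions sorted by FACS into six bins by GFP to DsRed ratio, PSI derived from sequencing read proportions per bin multiplied by bin number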

- Variant Name: "K18C"
  protein stability index: 2.62
- Variant Name: "R5I"
  protein stability index: 1.53
- Variant Name: "G16E"
  protein stability index: 1.85
- Variant Name: "K20F"
  protein stability index: 1.71
- Variant Name: "Q17D"
  protein stability index: 2.23
- Variant Name: "I2L"
  protein stability index: 3.44
- Variant Name: "F4N"
  protein stability index: 2.29
- Variant Name: "G16L"
  protein stability index: 2.23
- Variant Name: "R11K"
  protein stability index: 1.65
- Variant Name: "Q10H"
  protein stability index: 2.27
- Variant Name: "R13S"
  protein stability index: 1.41
- Variant Name: "I22A"
  protein stability index: 2.02
- Variant Name: "R11L"
  protein stability index: 1.61
- Variant Name: "K19R"
  protein stability index: 1.91
- Variant Name: "R12K"
  protein stability index: 1.91
- Variant Name: "K20I"
  protein stability index: 2.92
- Variant Name: "K21M"
  protein stability index: 2.3
- Variant Name: "K19G"
  protein stability index: 2.15
- Variant Name: "K21S"
  protein stability index: 2.33
- Variant Name: "G16A"
  protein stability index: 2.54
- Variant Name: "G16P"
  protein stability index: 1.66
- Variant Name: "N3C"
  protein stability index: 1.57
- Variant Name: "L7T"
  protein stability index: 2.26
- Variant Name: "K21V"
  protein stability index: 1.6
- Variant Name: "H6G"
  protein stability index: 1.75
- Variant Name: "Y15I"
  protein stability index: 2.11
- Variant Name: "Y8I"
  protein stability index: 1.56
- Variant Name: "F4E"
  protein stability index: 3.23
- Variant Name: "Q10S"
  protein stability index: 1.7
- Variant Name: "K19A"
  protein stability index: 2.04
- Variant Name: "R5E"
  protein stability index: 3.34
- Variant Name: "K9C"
  protein stability index: 1.83
- Variant Name: "K20N"
  protein stability index: 1.89
- Variant Name: "Y1N"
  protein stability index: 2.97
- Variant Name: "R13K"
  protein stability index: 1.45
- Variant Name: "K19H"
  protein stability index: 2.49
- Variant Name: "K19T"
  protein stability index: 1.96
- Variant Name: "K21L"
  protein stability index: 1.92
